Hey, just so you know, these numbers are from paper PMC5540273.

# Test system: MST3
# Construct: gene STK24
# Test context: concentration: 1 μM, replicates: in singlicate; n = 1
Measurement label: %Inh (%)
Write the value in % as a bare number.

Look up %Inh for this compound: Cl.Cn1ccc(-c2cccc(Nc3ccnc4cc(-c5nccs5)ccc34)c2)n1 [GW525701]
0

Request the reported %Inh associated with "COC(=O)c1c(-c2ccccc2)c2cc(Cl)ccc2c(=O)n1Cc1ccc(S(C)(=O)=O)cc1"
7

Can you look up the measured %Inh of "CN1c2ccc(-c3ccc(C(=O)NCCO)cc3)cc2-c2[nH]ncc2S1(=O)=O" for me?
10

So what's the measured %Inh for this one? CC(C)(C)c1ccc(-n2cnc3c(N)ncnc32)cc1 [SKF-97263]
0

Could you share which %Inh value was measured for CC(=O)Nc1n[nH]c2ncc(-c3ccccc3)cc12 [SB-548492] ?
5

I have this compound here, Nc1nc(-c2ccccn2)c(-c2ccnc3ccccc23)s1 [GW548057] , and I need its recorded %Inh.
16

Any idea what its %Inh is? The compound is "Fc1cccc(COc2ccc(Nc3ncnc4cc[nH]c34)cc2Cl)c1"
23

// lookup %Inh for Nc1nccc2scc(-c3ccc4c(c3)CCN4C(=O)Cc3cc(F)ccc3F)c12 [GSK2587663]
15

Given the entry FC(F)(F)c1ccc(-c2nn3ncccc3c2-c2ccnc(Nc3cccc(C(F)(F)F)c3)n2)cc1 [GW828205] , report its measured %Inh.
0

Record request: %Inh value, item Nc1nc(-c2ccc3c(N)n[nH]c3c2)cc(N2CCCCC2)n1 [GSK2228768]
0

Need %Inh, item Cc1ccc(O)cc1Nc1cc(C(F)(F)F)nc2ccc(-c3ccncc3)cc12 [GW630823]
18

// lookup %Inh for Cc1cccc(-c2nc(Nc3ccc4[nH]nnc4c3)c3ccccc3n2)n1 [GW867587]
0

%Inh for Clc1cccc(-c2nc(Nc3ccncc3)c3ccccc3n2)c1 [GW873004] ?
9

Query (compound): "Cn1ccc2ncnc(Nc3ccc(Oc4cccc(Cl)c4)c(Cl)c3)c21" ; field requested: %Inh
10

For the compound COc1cc2c(Nc3cccc(NC(=O)c4ccccc4)c3)ncnc2cc1OCCCN1CCOCC1 [GSK223810] , what %Inh is on record?
10

Consider the compound Cl.c1ccc(Cn2ccc3cc(Nc4ncnc5ccccc45)ccc32)cc1 [GW275568] and give its measured %Inh.
17

I am curious: what %Inh value has been reported for "Cn1ccc2ncnc(Oc3ccc(NC(=O)Nc4cccnc4)c(Cl)c3)c21" ?
10

Consider the compound shown here: Fc1cccc(COc2ccc(Nc3ncnc4nn5ccccc5c34)cc2Cl)c1 [GW689066] What is its recorded %Inh?
0

For the compound shown here, COC(=O)c1cccc(NC(=O)NCCNc2ccnc(Nc3ccc(F)cc3)n2)c1 [GSK1379883] , give the reported %Inh.
0

###

Field: %Inh. Provide a value for each of the compounds that follow.
# Test system: TIE2
# Construct: gene TEK
# Test context: concentration: 1 μM, replicates: in singlicate; n = 1
Form entry: value (%) — number only.

Could you tell me which %Inh is on file for "COc1cc2ncnc(Nc3ccc(OCc4ccccc4Br)c(Cl)c3)c2cc1OC.Cl" ?
3

Any idea what its %Inh is? The compound is "C[C@H]1CC[C@@H](C(=O)Nc2ccccc2)CN1c1cc(-c2ccc3c(N)n[nH]c3c2)nc(N)n1"
0

Entry "CN1c2ccc(-c3ccc(C(=O)NCCO)cc3)cc2-c2[nH]ncc2S1(=O)=O" : reported %Inh = ?
3

Item under review: "COc1cc2c(Nc3cccc(NC(=O)c4ccccc4)c3)ncnc2cc1OCCCN1CCOCC1" . Reported %Inh?
0

Would you kindly share the measured %Inh for "O=C(Nc1n[nH]c2nc(-c3ccco3)c(Br)cc12)c1ccc(CN2CCCC2)cc1.O=C(O)[C@H](O)[C@@H](O)C(=O)O" ?
0

Would you kindly share the measured %Inh for "Clc1ccc(-c2cc(-c3c[nH]nc3-c3ccccn3)ccn2)cc1" ?
0

# input compound: "OCCOCCn1ccc2ncnc(Nc3ccc(Oc4cccc(Cl)c4)c(Cl)c3)c21" ; wanted: its %Inh
31

Reported %Inh for COc1ccc(Nc2nccc(N3CCC(NC(=O)c4cccc(NC(C)=O)c4)C3)n2)cc1 (stereo not drawn) : what is it?
0

Record request: %Inh value, item "Nc1nc(-c2cccnc2)c(-c2ccnc3ccccc23)s1"
0

###

# System: DAPK1;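 also: kd values determined as follow-up on hits from a single-replicate KINOMEscan panel screen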
Measurement label: Kd (nM)
Express it in nM; write the number only.

Could you share which Kd value was measured for "Cl.Cl.c1ccc(-c2cc3ccncc3cc2OC2CCNCC2)cc1" ?
300

###

Assignment: determine reported %Inh for the given compounds.
# System: PRKD3
# Test context: concentration: 1 μM, replicates: in singlicate; n = 1
Write the answer as a number in %, unit excluded.

Look at this compound and give its reported %Inh. "Cn1cc(-c2ccc3c(c2)CCN3C(=O)Cc2cccc(C(F)(F)F)c2)c2c(N)ncnc21"
42

# lookup: %Inh of "Nc1nc(-c2ccc3c(N)n[nH]c3c2)cc(N2CCC[C@@H](C(=O)Nc3ccccc3)C2)n1.O=C(O)C(F)(F)F.O=C(O)C(F)(F)F"
5

%Inh lookup needed for CC(C)(C)OC(=O)NC1CCCN(c2cc(-c3ccc4c(N)n[nH]c4c3)nc(N)n2)C1 (centres unmarked) , thanks.
0

Any idea what %Inh was measured for "O=C(Nc1ccccc1)Nc1ccc(Oc2ccc3nccn3n2)cc1" ?
0

What %Inh value was documented for this compound, "OCCOCCn1ccc2ncnc(Nc3ccc(Oc4cccc(Cl)c4)c(Cl)c3)c21" ?
0

Consider the compound "FC(F)(F)c1cc(Nc2nccc(-c3c(-c4ccc(Cl)cc4)nn4ncccc34)n2)ccc1Cl" and give its measured %Inh.
0

Returns the measured %Inh for the input compound. Input: "O=C(CCO)NCCn1ccc2ncnc(Nc3ccc(Oc4cccc(C(F)(F)F)c4)c(Cl)c3)c21"
0

Field request: %Inh | item: "COc1cc2c(Nc3cccc(NC(=O)c4ccccc4)c3)ncnc2cc1OCCCN1CCOCC1"
5

Requested field: %Inh. Item: "Nc1nccc2scc(-c3ccc4c(c3)CCN4C(=O)Cc3cc(F)ccc3F)c12"
16

Item under review: "CN1c2ccc(-c3ccc(C(=O)NCCO)cc3)cc2-c2[nH]ncc2S1(=O)=O" . Reported %Inh?
0

If you can, please state the reported %Inh value of "Cc1cc(N2CCC(NS(=O)(=O)c3ccc(F)cc3)CC2)nc(Nc2cccc(C#N)c2)n1.O=C(O)C(F)(F)F" .
43

Looking for the measured %Inh of "Fc1ccc(Nc2nccc(-c3c(-c4ccc(Cl)cc4)nn4ncccc34)n2)cc1F" , can you help?
9

Name the recorded %Inh for "Nc1nc(-c2ccc3c(N)n[nH]c3c2)cc(N2CCCCC2)n1" .
6

Using the record for "Cn1ccc2ncnc(Oc3ccc(NC(=O)Nc4cccnc4)c(Cl)c3)c21" , report its %Inh.
0

Which value of %Inh has been reported for "Cn1ccc2ncnc(Nc3ccc(Oc4cccc(Cl)c4)c(Cl)c3)c21" in the records?
0

What does the record list as %Inh for "Cl.O=S(=O)(c1cccc(F)c1)c1ccc(Nc2ncnc3cc(Br)sc23)cc1Cl" ?
4

Look up %Inh: "Clc1cccc(-c2nc(Nc3ccncc3)c3ccccc3n2)c1"
44

###

# Tested on: CAMK2B
# Test context: concentration: 1 μM, replicates: in singlicate; n = 1
Measurement label: %Inh (%)
Expressed in %, but write only the number.

What measured %Inh is associated with Cn1cc(-c2ccc3c(c2)CCN3C(=O)Cc2cccc(C(F)(F)F)c2)c2c(N)ncnc21 [GSK2606414] on CAMK2B?
0

Kindly state the measured %Inh obtained for CS(=O)(=O)CCNCc1ccc(-c2ccc3ncnc(Nc4ccc(OCc5ccccc5)c(Cl)c4)c3c2)o1.Cl [GW574783] with CAMK2B.
0

Find %Inh (CAMK2B) for the entry "O=C(Nc1ccccc1)Nc1ccc(Oc2ccc3nccn3n2)cc1"
0

Form field: %Inh recorded for Nc1nc(-c2ccc3c(N)n[nH]c3c2)cc(N2CCCCC2)n1 [GSK2228768] with CAMK2B (enter value)
0

For the record FC(F)(F)c1ccc(-c2nn3ncccc3c2-c2ccnc(Nc3cccc(C(F)(F)F)c3)n2)cc1 [GW828205] , what value of %Inh is listed for CAMK2B?
0

So what %Inh did O=C(Nc1n[nH]c2nc(-c3ccco3)c(Br)cc12)c1ccc(CN2CCCC2)cc1.O=C(O)[C@H](O)[C@@H](O)C(=O)O [SB-742352] get with CAMK2B?
0

GET /values?readout=%Inh&system=CAMK2B&item= FC(F)(F)c1cc(Nc2nccc(-c3c(-c4ccc(Cl)cc4)nn4ncccc34)n2)ccc1Cl [GW829351]
27

What measured %Inh is associated with "COC(=O)c1c(-c2ccccc2)c2cc(Cl)ccc2c(=O)n1Cc1ccc(S(C)(=O)=O)cc1" on CAMK2B?
0

Record CSc1nn2c(=O)cc(N3CCOCC3)nc2n1Cc1cccc(Cl)c1Cl [GSK2347225] : what is its %Inh with CAMK2B?
0

Request body: readout %Inh, system CAMK2B, query "Fc1ccc(-c2ncn(CCCNCc3ccccc3)c2-c2ccncc2)cc1" . Return the value.
6

Give recorded %Inh with CAMK2B for the following molecule: CS(=O)(=O)CCNCc1nc(-c2ccc3ncnc(Nc4ccc(OCc5cccc(F)c5)c(Cl)c4)c3c2)cs1.Cl [GW583340]
0

What is its %Inh for CAMK2B? Entry: CSc1ccc(NC2=C(c3ccccc3Cl)C(=O)NC2=O)cc1 [SB-342411]
13

Which measured %Inh belongs to CC(C)N1CCC(n2cnc(-c3ccc(F)cc3)c2-c2ccnc(N)n2)CC1 [SB-223132] , tested on CAMK2B?
0

Which measured %Inh belongs to Nc1nc(-c2cccnc2)c(-c2ccnc3ccccc23)s1 [GW684083] , tested on CAMK2B?
0

Record Cl.Fc1ccccc1COc1ccc(Nc2ncnc3ccc(-c4nnc(C(F)(F)F)o4)cc23)cc1Cl [GW424170] : what is its %Inh with CAMK2B?
0

Give the reported %Inh for Cl.c1ccc(Cn2ncc3cc(Nc4ncnc5ccccc45)ccc32)cc1 [GW273749] (system: CAMK2B).
0

Return %Inh measured with CAMK2B given this molecule: "CN1c2ccc(-c3ccc(C(=O)NCCO)cc3)cc2-c2[nH]ncc2S1(=O)=O"
66
